system: myeloid leukemia patient primary cells Pat.6; test: cell viability (% survival relative to DMSO control); higher = less cytotoxic; settings: 100 nM; 72 h

Compound string	Comparison symbol	cell viability / %
C=C(C=NNC(=N)N)NNC(=N)N	=	44.5
Cc1c(-c2ccc(-c3ccccc3F)cc2)nc2ccc(F)cc2c1C(=O)O	=	93.9
O=C(O)Cn1nnc(-c2cc(N3CCC(Oc4cc(F)ccc4Br)CC3)no2)n1	=	97.3
Oc1ccc(Nc2nc(-c3ccc(Cl)cc3)cs2)cc1	=	95.4
O=C(O)C1=CC(=C(c2ccc(O)c(C(=O)O)c2)c2ccc(O)c(C(=O)O)c2)C=CC1=O	>	100

* * *

test system: Mono-Mac-6; assay: cell viability (% survival relative to DMSO control, bortezomib = 0%); higher = less cytotoxic; conditions: 10 nM; 72 h

Molecule	Unit label	cell viability
N#Cc1ccnc(N2C(=O)CC[C@H]2C(=O)N(c2cncc(F)c2)C(C(=O)NC2CC(F)(F)C2)c2ccccc2Cl)c1 (some centres not stated)	%	88.9
O=C(O)C1=CC(=C(c2ccc(O)c(C(=O)O)c2)c2ccc(O)c(C(=O)O)c2)C=CC1=O	%	98.6
CCOC(=O)c1ccc(-c2ccc(OC(=O)N(C)Cc3cccc(-c4ccncc4)c3)cc2)cc1	%	112
CC(C)c1cc2c(c(O)c1O)[C@@]1(C(=O)O)CCCC(C)(C)[C@@H]1CC2	%	102
Cc1cn([C@H]2C[C@H](O)[C@@H](COP(=O)(O)OP(=O)(O)O)O2)c(=O)[nH]c1=O [Thymidine diphosphate]	%	88.1
NCCCC(N)(C(=O)O)C(F)F (configuration not stated)	%	92.7
C=C(C=NNC(=N)N)NNC(=N)N	%	92.3
NC(=O)c1cccc(-c2cccc(OC(=O)NC3CCCCC3)c2)c1	%	99.6
CCCCN1C[C@H](O)[C@@H](O)[C@H](O)[C@H]1CO	%	90.4
CCCCC/C=C\C/C=C\C/C=C\C/C=C\CCCCN1C(=O)C=CC1=O [N-Arachidonylmaleimide]	%	101
O=C1O[C@H]([C@@H](O)CO)C(O)=C1O [Vitamin C (ascorbate)]	%	109
CCN(CC)CCCC(C)Nc1ccnc2cc(Cl)ccc12 (configuration not stated)	%	94.9

* * *

// values below are reported cell viability
test system: THP-1; test: cell viability (% survival relative to DMSO control, bortezomib = 0%); higher = less cytotoxic; settings: 10 nM; 72 h

Molecule	Target or system	cell viability / %
O=C1c2cc([N+](=O)[O-])ccc2-n2c1nc1ccccc1c2=O	THP-1	92.2
NCCCC(N)(C(=O)O)C(F)F (stereo not given)	THP-1	95.6
COc1ccc(C(=O)Nc2c(Cl)cncc2Cl)cc1OC1CCCC1	THP-1	104
CN(C)C(=O)[C@H](O)[C@H](Cc1ccccc1)NC(=O)c1cc2cc(Cl)ccc2[nH]1	THP-1	95.8
COc1cc(/C=C/C(=O)N2CCC=CC2=O)cc(OC)c1OC	THP-1	93.9

* * *

cell viability for assorted compounds
tested on: myeloid leukemia patient primary cells Pat.5; assay: cell viability (% survival relative to DMSO control); higher = less cytotoxic; settings: 10 nM; 72 h

Compound string	Target or system	Unit label	Comparison symbol	cell viability
C[C@H](NC(=O)c1sccc1OCc1ccc(Cl)cc1)c1ccccc1	myeloid leukemia patient primary cells Pat.5	%	=	68.7
C=C(C)[C@H]1Cc2c(ccc3c2O[C@@H]2COc4cc(OC)c(OC)cc4[C@@H]2C3=O)O1	myeloid leukemia patient primary cells Pat.5	%	=	0.265
O=C(C1CC1)N1CC[C@@H](C=C2NNC(=O)N2c2ccc(-c3ccc4occc4c3)cc2)C1	myeloid leukemia patient primary cells Pat.5	%	>	100
COc1cc(/C=C/C(=O)N2CCC=CC2=O)cc(OC)c1OC	myeloid leukemia patient primary cells Pat.5	%	=	82.5
C=C(C=NNC(=N)N)NNC(=N)N	myeloid leukemia patient primary cells Pat.5	%	=	0.912

* * *

tested on: K-562; test: cell viability (% survival relative to DMSO control, bortezomib = 0%); higher = less cytotoxic; conditions: 1 nM; 72 h

Compound	Unit label	cell viability
O=C(O)C1=CC(=C(c2ccc(O)c(C(=O)O)c2)c2ccc(O)c(C(=O)O)c2)C=CC1=O	%	88.9
CCCCCCCCCCCC(=O)c1c(O)c(C(=O)CCCCCCCCCCC)c(O)c(C2CC(c3ccc(O)cc3)Oc3cc(O)ccc32)c1O (centres undefined)	%	97.9
CC1(C)[C@@H](O[C@H]2O[C@H](C(=O)O)[C@@H](O)[C@H](O)[C@H]2O[C@@H]2O[C@H](C(=O)O)[C@@H](O)[C@H](O)[C@H]2O)CC[C@]2(C)[C@H]3C(=O)C=C4[C@@H]5C[C@@](C)(C(=O)O)CC[C@]5(C)CC[C@@]4(C)[C@]3(C)CC[C@@H]12	%	88.7
O=C1O/C(=C/Br)CCC1c1cccc2ccccc12 (centres undefined)	%	102
Cc1ccccc1C(C(=O)NC1CCCCC1)N(C(=O)Cn1ccnc1C)c1cccc(F)c1 (centres undefined)	%	98.5
Cc1coc2c1C(=O)C(=O)c1c-2ccc2c1CCCC2(C)C	%	98.1
CC[C@H](C)C(=O)O[C@H]1C[C@@H](C)C=C2C=C[C@H](C)[C@H](CC[C@@H]3C[C@@H](O)CC(=O)O3)[C@H]21	%	108
COc1cc(/C=C/C(=O)N2CCC=CC2=O)cc(OC)c1OC	%	102
COc1ccc(C(=O)Nc2c(Cl)cncc2Cl)cc1OC1CCCC1	%	90.5
NC(=O)c1cccc(-c2cccc(OC(=O)NC3CCCCC3)c2)c1	%	102
CCCCN1C[C@H](O)[C@@H](O)[C@H](O)[C@H]1CO	%	94.4
COC(=O)[C@]12CCC(C)(C)C[C@H]1[C@H]1C(=O)C=C3[C@@]4(C)C=C(C#N)C(=O)C(C)(C)[C@@H]4CC[C@@]3(C)[C@]1(C)CC2	%	106
CCC(=O)N1CCN(c2ccc(-n3c(=O)ccc4cnc5ccc(-c6cnc7ccccc7c6)cc5c43)cc2C(F)(F)F)CC1	%	108
O=C(O)Cn1nnc(-c2cc(N3CCC(Oc4cc(F)ccc4Br)CC3)no2)n1	%	97.7

* * *

// values below are reported cell viability
tested on: NOMO-1; experiment: cell viability (% survival relative to DMSO control, bortezomib = 0%); higher = less cytotoxic; details: 100 nM; 72 h

Compound	cell viability (%)
CC1(C)[C@@H](O[C@H]2O[C@H](C(=O)O)[C@@H](O)[C@H](O)[C@H]2O[C@@H]2O[C@H](C(=O)O)[C@@H](O)[C@H](O)[C@H]2O)CC[C@]2(C)[C@H]3C(=O)C=C4[C@@H]5C[C@@](C)(C(=O)O)CC[C@]5(C)CC[C@@]4(C)[C@]3(C)CC[C@@H]12 [Glycyrrhizin]	103
C[C@H](NC(=O)c1sccc1OCc1ccc(Cl)cc1)c1ccccc1	99.3
Oc1ccc(Nc2nc(-c3ccc(Cl)cc3)cs2)cc1 [SKI II]	104
COc1ccc(CNC(=O)Nc2ncc([N+](=O)[O-])s2)cc1	97.9
N#CC(C#N)=NNc1ccc(OC(F)(F)F)cc1 [FCCP]	102
Cc1cn([C@H]2C[C@H](O)[C@@H](COP(=O)(O)OP(=O)(O)O)O2)c(=O)[nH]c1=O [Thymidine diphosphate]	100
O=C(O)C1=CC(=C(c2ccc(O)c(C(=O)O)c2)c2ccc(O)c(C(=O)O)c2)C=CC1=O [Aurintricarboxylic acid]	109
O=C1O/C(=C/Br)CCC1c1cccc2ccccc12 (configuration not stated) [Bromoenol Lactone]	100
Cc1c(-c2ccc(-c3ccccc3F)cc2)nc2ccc(F)cc2c1C(=O)O [Brequinar]	104
C[C@](N)(Cc1ccc(O)cc1)C(=O)O [Metirosine]	103
Nc1nc(Cl)nc2c1ncn2[C@H]1C[C@H](O)[C@@H](CO)O1 [Cladribine]	21.5
O=C(O)Cn1nnc(-c2cc(N3CCC(Oc4cc(F)ccc4Br)CC3)no2)n1 [MK-8245]	96.9

* * *

cell viability: recorded values
system: HL-60; test: cell viability (% survival relative to DMSO control); higher = less cytotoxic; conditions: 0.1 µM; 72 h; co-treatment: DMSO vehicle

Compound	Target or system	Unit label	cell viability
NCCCC(N)(C(=O)O)C(F)F (configuration not stated)	HL-60	%	104
O=C(O)C(=O)CBr	HL-60	%	97.7
O=c1cc(-c2ccccc2)oc2cc(O)c(O)c(O)c12	HL-60	%	101
O=C(O)C(=S)Cc1c[nH]c2ccc(F)cc12	HL-60	%	106
Cc1coc2c1C(=O)C(=O)c1c-2ccc2c1CCCC2(C)C	HL-60	%	101
CCC(=O)N1CCN(c2ccc(-n3c(=O)ccc4cnc5ccc(-c6cnc7ccccc7c6)cc5c43)cc2C(F)(F)F)CC1	HL-60	%	93.4
CC(C)c1cc2c(c(O)c1O)[C@@]1(C(=O)O)CCCC(C)(C)[C@@H]1CC2	HL-60	%	99.2
Cc1cn([C@H]2C[C@H](O)[C@@H](COP(=O)(O)OP(=O)(O)O)O2)c(=O)[nH]c1=O [Thymidine diphosphate]	HL-60	%	97.7
O=C1O[C@H]([C@@H](O)CO)C(O)=C1O [Vitamin C (ascorbate)]	HL-60	%	98.8
O=C(O)CCCCC(CCSCc1ccccc1)SCc1ccccc1 (configuration not stated)	HL-60	%	95.2
Cl.NC(CCC(=O)Nc1ccc([N+](=O)[O-])cc1)C(=O)O (configuration not stated)	HL-60	%	98.7
COc1ccc2c(C(=S)N(C)CC(=O)O)cccc2c1C(F)(F)F	HL-60	%	104
